# Tested on: HEL cell cultures
# conditionsUsed: human
compounds and their reported MCC (minimum cytotoxic concentration)

{"compound": "Nc1nc(O)c2ncn(COC(CO)CO)c2n1 [Ganciclovir, reference compound]", "relation": ">", "MCC (minimum cytotoxic concentration) / µM": 100}
{"compound": "CSc1ccc(C(c2c(O)c3ccccc3oc2=O)c2c(O)c3ccccc3oc2=O)cc1 [Compound 11]", "relation": "=", "MCC (minimum cytotoxic concentration) / µM": 100}
{"compound": "O=c1oc2ccccc2c(O)c1C(c1ccc([N+](=O)[O-])cc1)c1c(O)c2ccccc2oc1=O [Compound 8]", "relation": "=", "MCC (minimum cytotoxic concentration) / µM": 100}
{"compound": "COc1cc(OC)c2c(c1)Oc1c(c(=O)oc3ccccc13)C2c1c(O)c2ccccc2oc1=O (centres unmarked) [Compound 20]", "relation": "=", "MCC (minimum cytotoxic concentration) / µM": 100}
{"compound": "Nc1nc2c(ncn2COCCO)c(=O)[nH]1 [Acyclovir, reference compound]", "relation": ">", "MCC (minimum cytotoxic concentration) / µM": 250}

* * *

compounds and their reported EC50
# System: HSV-2 (G)
# methodDescription: microbe, parasite or virus in culture
# Assay type: cell-based, herpes simplex virus type 2
# conditionsUsed: Human alphaherpesvirus 2, HEL, read-out: EC50 HSV-2 (G)

{"compound": "Nc1nc2c(ncn2COCCO)c(=O)[nH]1 [Acyclovir, reference compound]", "relation": "=", "EC50 (µM)": 0.35}
{"compound": "COc1cc(C(c2c(O)c3ccccc3oc2=O)c2c(O)c3ccccc3oc2=O)cc([N+](=O)[O-])c1O [Compound 15]", "relation": ">", "EC50 (µM)": 100}
{"compound": "O=c1oc2ccccc2c(O)c1C(c1cccc(Br)c1)c1c(O)c2ccccc2oc1=O [Compound 3]", "relation": "=", "EC50 (µM)": 9}
{"compound": "CSc1ccc(C(c2c(O)c3ccccc3oc2=O)c2c(O)c3ccccc3oc2=O)cc1 [Compound 11]", "relation": ">", "EC50 (µM)": 20}
{"compound": "Nc1ccn(C[C@@H](CO)OCP(=O)(O)O)c(=O)n1 [Cidofovir, reference compound]", "relation": "=", "EC50 (µM)": 1.5}
{"compound": "COc1cc(OC)c2c(c1)Oc1c(c(=O)oc3ccccc13)C2c1c(O)c2ccccc2oc1=O (stereo not shown) [Compound 20]", "relation": ">", "EC50 (µM)": 20}
{"compound": "O=c1oc2ccccc2c(O)c1C(c1ccc([N+](=O)[O-])cc1)c1c(O)c2ccccc2oc1=O [Compound 8]", "relation": ">", "EC50 (µM)": 20}
{"compound": "Nc1nc(O)c2ncn(COC(CO)CO)c2n1 [Ganciclovir, reference compound]", "relation": "=", "EC50 (µM)": 0.03}
{"compound": "COc1ccc(OC)c(C(c2c(O)c3ccccc3oc2=O)c2c(O)c3ccccc3oc2=O)c1 [Compound 14]", "relation": ">", "EC50 (µM)": 100}
{"compound": "O=c1[nH]c(=O)n([C@H]2C[C@H](O)[C@@H](CO)O2)cc1/C=C/Br [Brivudin, (E)-5-(2-bromovinyl)-2’-deoxyuridine, reference compound]", "relation": "=", "EC50 (µM)": 182}
{"compound": "O=c1oc2ccccc2c(O)c1C1c2cc([N+](=O)[O-])ccc2Oc2c1c(=O)oc1ccccc21 (stereo not shown) [Compound 19]", "relation": "=", "EC50 (µM)": 45}
{"compound": "O=c1oc2ccccc2c(O)c1C(c1ccc(O)c(O)c1)c1c(O)c2ccccc2oc1=O [Compound 13]", "relation": ">", "EC50 (µM)": 20}
{"compound": "O=c1oc2ccccc2c(O)c1C(c1ccc(C(F)(F)F)cc1)c1c(O)c2ccccc2oc1=O [Compound 7]", "relation": ">", "EC50 (µM)": 4}

* * *

# Test system: HSV-1 (KOS)
# methodDescription: microbe, parasite or virus in culture
# Format: cell-based, herpes simplex virus type 1
# conditionsUsed: Human alphaherpesvirus 1, HEL, read-out: EC50 HSV-1 (KOS)
pEC50: −log10 of the molar value.
measure: pEC50

{"compound": "O=c1[nH]c(=O)n([C@H]2C[C@H](O)[C@@H](CO)O2)cc1/C=C/Br [Brivudin, (E)-5-(2-bromovinyl)-2’-deoxyuridine, reference compound]", "recordedValue": 7.22}
{"compound": "O=c1oc2ccccc2c(O)c1C(c1ccc(O)c(O)c1)c1c(O)c2ccccc2oc1=O [Compound 13]", "recordedValue": "< 4.70"}
{"compound": "O=c1oc2ccccc2c(O)c1C(c1ccc([N+](=O)[O-])cc1)c1c(O)c2ccccc2oc1=O [Compound 8]", "recordedValue": "< 4.70"}
{"compound": "O=c1oc2ccccc2c(O)c1C(c1ccc(C(F)(F)F)cc1)c1c(O)c2ccccc2oc1=O [Compound 7]", "recordedValue": "< 5.40"}
{"compound": "Nc1ccn(C[C@@H](CO)OCP(=O)(O)O)c(=O)n1 [Cidofovir, reference compound]", "recordedValue": 6.05}
{"compound": "CSc1ccc(C(c2c(O)c3ccccc3oc2=O)c2c(O)c3ccccc3oc2=O)cc1 [Compound 11]", "recordedValue": "< 4.70"}
{"compound": "Nc1nc2c(ncn2COCCO)c(=O)[nH]1 [Acyclovir, reference compound]", "recordedValue": 6.52}
{"compound": "COc1cc(OC)c2c(c1)Oc1c(c(=O)oc3ccccc13)C2c1c(O)c2ccccc2oc1=O (stereo not drawn) [Compound 20]", "recordedValue": "< 4.70"}
{"compound": "COc1cc(C(c2c(O)c3ccccc3oc2=O)c2c(O)c3ccccc3oc2=O)cc([N+](=O)[O-])c1O [Compound 15]", "recordedValue": "< 4.00"}

* * *

# methodDescription: in vitro
# conditionsUsed: cat
In plain terms, low CC50, meaning strictly below 40 µM, gives 1.0, and everything else gives 0.0.

{"compound": "COc1ccccc1C(c1c(O)c2ccccc2oc1=O)c1c(O)c2ccccc2oc1=O", "className": 1.0}
{"compound": "O=c1oc2ccccc2c(O)c1C(c1ccc(Cl)cc1)c1c(O)c2ccccc2oc1=O", "className": 0.0}
{"compound": "O=c1oc2ccccc2c(O)c1C(c1ccccc1[N+](=O)[O-])c1c(O)c2ccccc2oc1=O", "className": 1.0}
{"compound": "O=c1oc2ccccc2c(O)c1C(c1ccccc1)c1c(O)c2ccccc2oc1=O", "className": 0.0}
{"compound": "Nc1nc(O)c2ncn(COC(CO)CO)c2n1 [Ganciclovir, reference compound]", "className": 0.0}
{"compound": "COc1cc(OC)c2c(c1)Oc1c(c(=O)oc3ccccc13)C2c1c(O)c2ccccc2oc1=O (centres unmarked)", "className": 1.0}

* * *

# Tested on: Feline Herpes Virus
# methodDescription: organism not typed
# Type: cell-based
# conditionsUsed: CRFK, read-out: EC50 Feline Herpes Virus
measure: EC50 (µM)

{"molecule": "O=c1oc2ccccc2c(O)c1C(c1ccccc1[N+](=O)[O-])c1c(O)c2ccccc2oc1=O", "targetDesc": "Feline Herpes Virus", "measure": "EC50", "recordedValue": 14}
{"molecule": "O=c1oc2ccccc2c(O)c1C(c1ccc(Cl)cc1)c1c(O)c2ccccc2oc1=O", "targetDesc": "Feline Herpes Virus", "measure": "EC50", "recordedValue": 7.6}
{"molecule": "COc1ccccc1C(c1c(O)c2ccccc2oc1=O)c1c(O)c2ccccc2oc1=O", "targetDesc": "Feline Herpes Virus", "measure": "EC50", "recordedValue": 5}
{"molecule": "COc1cc(OC)c2c(c1)Oc1c(c(=O)oc3ccccc13)C2c1c(O)c2ccccc2oc1=O (stereo not shown)", "targetDesc": "Feline Herpes Virus", "measure": "EC50", "recordedValue": 7.1}

* * *

molecules and their reported MCC (minimum cytotoxic concentration)
# System: HEL cell cultures
# conditionsUsed: human

{"molecule": "COc1cc(C(c2c(O)c3ccccc3oc2=O)c2c(O)c3ccccc3oc2=O)cc([N+](=O)[O-])c1O", "MCC (minimum cytotoxic concentration)": ">100 µM"}
{"molecule": "O=c1oc2ccccc2c(O)c1C1c2cc([N+](=O)[O-])ccc2Oc2c1c(=O)oc1ccccc21 (stereo not shown)", "MCC (minimum cytotoxic concentration)": ">100 µM"}
{"molecule": "O=c1[nH]c(=O)n([C@H]2C[C@H](O)[C@@H](CO)O2)cc1/C=C/Br [Brivudin, (E)-5-(2-bromovinyl)-2’-deoxyuridine, reference compound]", "MCC (minimum cytotoxic concentration)": ">250 µM"}
{"molecule": "Nc1ccn(C[C@@H](CO)OCP(=O)(O)O)c(=O)n1 [Cidofovir, reference compound]", "MCC (minimum cytotoxic concentration)": ">250 µM"}
{"molecule": "COc1ccc(OC)c(C(c2c(O)c3ccccc3oc2=O)c2c(O)c3ccccc3oc2=O)c1", "MCC (minimum cytotoxic concentration)": ">100 µM"}
{"molecule": "O=c1oc2ccccc2c(O)c1C(c1ccc(O)c(O)c1)c1c(O)c2ccccc2oc1=O", "MCC (minimum cytotoxic concentration)": "100 µM"}
{"molecule": "O=c1oc2ccccc2c(O)c1C(c1ccc(C(F)(F)F)cc1)c1c(O)c2ccccc2oc1=O", "MCC (minimum cytotoxic concentration)": "20 µM"}
